Tested on: Human immunodeficiency virus 1
test: Nucleocapsid p7 protein (NCp7) zinc finger domain reactivity was measured by Trp37 fluorescence assay expressed as the average decrease in relative fluorescence units over 30 min
Format: functional
Form field: Activity (one value per entry).
Provide the reading as a plain figure in RFU min-1.

- smiles.repr: "COc1ccc(C(=O)Sc2ccccc2C(=O)Nc2ccc(S(=O)(=O)NC(C)=O)cc2)cc1"
  Activity, RFU min-1: 3.5

Any idea what Activity was measured for NS(=O)(=O)c1ccc(Cn2sc3ccccc3c2=O)cc1 ?
2.7

Okay, and CC(=O)NS(=O)(=O)c1ccc(NC(=O)c2ccccc2NC(=O)CCl)cc1 ?
0.3

----------
Form field: pEC50 (one value per entry).
System: Human immunodeficiency virus 1
test: Effective antiviral concentration against HIV-1 infected CEM-SS cells
Type: functional, organism-based
measurement.parameters: Human immunodeficiency virus 1, CEM-SS
Please report pEC50 as the negative decimal logarithm of the molar concentration, giving only the number.

- smiles.repr: "COc1ccc(NS(=O)(=O)c2ccc(NC(=O)c3ccccc3SSc3ccccc3C(=O)Nc3ccc(S(=O)(=O)Nc4ccc(OC)nn4)cc3)cc2)nn1"
  value: 5.38
- smiles.repr: "O=C(Nc1ccc(S(=O)(=O)c2ccc([N+](=O)[O-])cc2)cc1)c1ccccc1SSc1ccccc1C(=O)Nc1ccc(S(=O)(=O)c2ccc([N+](=O)[O-])cc2)cc1"
  value: 4.91
- smiles.repr: "Cc1nnc(NS(=O)(=O)c2ccc(-n3sc4ccccc4c3=O)cc2)s1"
  value: 5.11
- smiles.repr: "Cc1cc(C)nc(NS(=O)(=O)c2ccc(-n3sc4ccccc4c3=O)cc2)n1"
  value: 5.16
- smiles.repr: "Cc1cc(NS(=O)(=O)c2ccc(NC(=O)c3ccccc3SSc3ccccc3C(=O)Nc3ccc(S(=O)(=O)Nc4cc(C)nc(C)n4)cc3)cc2)nc(C)n1"
  value: 5.72
- smiles.repr: "NS(=O)(=O)c1ccc(NS(=O)(=O)c2ccc(NC(=O)c3ccccc3SSc3ccccc3C(=O)Nc3ccc(S(=O)(=O)Nc4ccc(S(N)(=O)=O)cc4)cc3)cc2)cc1"
  value: 5.64

Any idea what pEC50 was measured for Nc1ccc(S(=O)(=O)c2ccc(NC(=O)c3ccccc3SSc3ccccc3C(=O)Nc3ccc(S(=O)(=O)c4ccc(N)cc4)cc3)cc2)cc1 ?
5.37

Okay, and O=C(Nc1ccc(S(=O)(=O)c2ccc(NC(=O)c3ccccc3SSc3ccccc3C(=O)Nc3ccc(S(=O)(=O)c4ccc(NC(=O)c5cccs5)cc4)cc3)cc2)cc1)c1cccs1 ?
4.91

Okay, and CC(=O)NS(=O)(=O)c1ccc(NC(=O)c2ccccc2SC(=O)CCCC[n+]2cccc(Cl)c2)cc1.[Br-] ?
4.27
